Provenance of the data: PubChem BioAssay (NCI)

# System: HT29 colon
# test details: NCI-60 one-dose screen, 48 h
# condition context: 10 µM unless noted
# Protocol: Growth inhibition of the HT29 human tumor cell line is measured as a screen for anti-cancer activity. Cells are grown in 96 well plates and exposed to the test compound for 48 hours. Compounds are tested at a single concentration, which is 10^-5 M for most compounds. The reported endpoint is percent growth (GI% or GIPRCNT), where numbers from 0 - 100% represent growth inhibition, and numbers from -100% - 0 represent cell death. For example, a value of 40 represents 60% growth inhibition. […]
Compounds without any hit were thinned out: in the full panel of roughly 83,000, 20% have a hit. Calls of active or inactive are those of the source. How the source made its calls: active means growth percent below 10; inactive means the rest.
Classes used: active, inactive

>>> cat("c1cnc2[nH]cc(-c3csc(-c4cn(CCCN5CCCCC5)c5ccccc45)n3)c2c1")
"active"
>>> cat("COc1ccccc1-n1cnc(N)c1C(=O)c1cc(OC)c(OC)c(OC)c1")
"inactive"
>>> cat("COc1cccc(-c2nn(-c3ccccc3)cc2-c2ccnc(NCCCN)c2)c1")
"inactive"
>>> cat("Brc1ccc(Cn2nnnc2-c2ccn(-c3ccccc3)n2)cc1")
"inactive"
>>> cat("Fc1ccc(NCc2nnc(-c3ccc(Cl)cc3)o2)cc1")
"inactive"
>>> cat("CCNCCCn1c2c(c3ccc([N+](=O)[O-])cc3c1=O)C(=O)c1cc(OC)cnc1-2")
"active"
>>> cat("C=C1CC[C@@H](C(=O)OC)Cc2nc(C)ccc21")
"inactive"
>>> cat("COc1cccc(-c2nn(-c3ccccc3)cc2-c2ccnc(NCCCNS(=O)(=O)c3ccc(Cl)cc3)c2)c1")
"inactive"
>>> cat("c1ccc(C2Cc3ccccc3C2=NC2CCCCC2)cc1 (stereo unspecified)")
"inactive"
>>> cat("c1ccc2c(-c3nc(-c4c[nH]c5ncccc45)cs3)c[nH]c2c1")
"inactive"
>>> cat("C/C(=N\\Nc1cc(C)c2ccccc2n1)c1ccccn1")
"active"
>>> cat("CC[C@]12C=CCN3CC[C@@]4(c5cc([C@H]6CCC(=O)N6)c(OC)cc5N(C)[C@H]4[C@@](O)(C(=O)OC)[C@@H]1OC(C)=O)[C@@H]32")
"inactive"
>>> cat("OCCNc1nc(Nc2ccc(Cl)c(Cl)c2)nc2ccccc12")
"active"
>>> cat("Cc1ccc(Sc2sc(-c3ccccc3)nc2[P+](c2ccccc2)(c2ccccc2)c2ccccc2)cc1")
"active"
>>> cat("Nc1c2c(nc3ccc(Br)cc13)CC(c1ccccc1)CC2=O (stereo unspecified)")
"inactive"
>>> cat("O=C(/C(=C(\\C(=O)c1ccccc1)c1ccccc1)c1ccccc1)c1ccccc1")
"inactive"
>>> cat("Cn1cc(-c2csc(-c3cn(CCCN4CCCCC4)c4ccccc34)n2)c2cccnc21")
"active"
>>> cat("O=C(O)c1cccc2c1-c1ccc(Cl)cc1C2")
"inactive"
>>> cat("COc1cc2c(cc1-c1c(C)noc1C)ncc1nc(C3CC3)n([C@H](C)COC(F)F)c12")
"inactive"
>>> cat("Cc1cc2nc3c4cc(Cl)ccc4n(CCN(C)C)c3nc2cc1C")
"active"
>>> cat("O=C1c2ccccc2NC(c2cn(-c3ccccc3)nc2-c2cccs2)N1Cc1ccccc1 (stereo unspecified)")
"inactive"

---

# System: UACC-257 melanoma
# test details: NCI-60 one-dose screen, 48 h
# condition context: 10 µM unless noted
The panel holds about 83,000 compounds, 20% with a hit somewhere; the sample as a whole holds those more often. Activity calls are given as the source filed them. How the source made its calls: active means growth percent below 10; inactive means the rest.
Outcome codes: active, inactive

>>> cat("C/C(=N\\NC(=O)C(C)SC(C)C(=O)N/N=C(\\C)c1cccnc1)c1cccnc1 (stereo not drawn)")
"inactive"
>>> cat("CN1CCN(CCOc2ccc(-c3cnc4c(-c5ccccc5F)cnn4c3)cc2)CC1")
"active"
>>> cat("Cc1cc(Nc2ccc(F)cc2)nc(N2CCN(c3ccnc4cc(Cl)ccc34)CC2)n1")
"inactive"
>>> cat("CC1(C)CC[C@]2(CO)CC[C@]3(C)C(=CC[C@@H]4[C@@]5(C)CC[C@H](NCO)C(C)(C)[C@@H]5CC[C@]43C)[C@@H]2C1")
"inactive"
>>> cat("COc1ccc2c(c1)c(-c1nc(-c3cn(C)c4ncccc34)cs1)cn2CCCN1CCCCC1")
"inactive"
>>> cat("CC(=O)c1c(C)[nH]c(-c2nc3ccc(N4CCN(C)CC4)cc3[nH]2)c1-c1ccc(OCC2CCOCC2)cc1")
"inactive"
>>> cat("COc1cc(-c2nc(-c3ccccc3)c(-c3ccccc3)[nH]2)cc(OC)c1O")
"active"
>>> cat("CCCCC[C@H]1C/C=C2/C(=O)C=C[C@@H]2C/C=C\\CCCC(=O)O[C@@H](CCCCC)C/C=C2/C(=O)C=C[C@@H]2C/C=C\\CCCC(=O)O1")
"active"

---

# Test system: MDA-MB-435 melanoma
# test details: NCI-60 one-dose screen, 48 h
# condition context: 10 µM unless noted
This is part of a sample that, as a whole, favours compounds with a hit. Of some 83,000 tested, about 20% had one in any assay. The source made the active and inactive calls. Rule for the calls: active = growth percent below 10; inactive = the rest.
Possible outcomes: t (active), f (inactive)

>>> cat("Cn1cccc1/C=C1/SC(=S)N(CCc2ccc(O)cc2)C1=O")
"t"
>>> cat("COC(=O)[C@]12CC[C@@H](C(=O)/C=C/c3cccnc3)[C@@H]1[C@H]1CC[C@@H]3[C@@]4(C)C/C(=C/c5cccnc5)C(=O)C(C)(C)[C@@H]4CC[C@@]3(C)[C@]1(C)CC2")
"t"
>>> cat("COc1ccc(-c2nc3ccccn3c2-c2nc3ccc(Cl)cc3[nH]2)cc1")
"f"
>>> cat("NCCn1cc(-c2nc(-c3c[nH]c4ncccc34)cs2)c2cc(Br)ccc21")
"f"
>>> cat("O=C(O)c1cccc2c1-c1ccc(Cl)cc1C2")
"f"
>>> cat("Cn1cc(-c2csc(-c3cn(C(=O)OC(C)(C)C)c4ccc(Br)cc34)n2)c2cccnc21")
"f"
>>> cat("O=C1NC(=Nc2ccc(S(=O)(=O)Nc3nccs3)cc2)S/C1=C\\c1coc2ccccc2c1=O")
"f"
>>> cat("CC1=CC(=O)N(c2cccc3c(N4C(=O)C=C(C)C4=O)cccc23)C1=O")
"f"
>>> cat("Nc1c(C(=O)Nc2c(Cl)cccc2Cl)sc2nc3c(cc12)C(=O)CCC3")
"t"

---

# Test system: MDA-MB-231 breast
# test details: NCI-60 one-dose screen, 48 h (100 = growth as untreated, 0 = no growth, -100 = all killed)
# condition context: 10 µM unless noted
About 83,000 compounds went through this panel and 20% of them were active in at least one assay; those are over-represented in the sample as a whole.
Class 1: growth at least 70%. Class 0: growth below 70%.

>>> cat("COc1cc(-c2cc(-c3nc4cc(Cl)c(Cl)cc4[nH]3)[nH]n2)cc(OC)c1OC")
1
>>> cat("COc1cccc(-c2nn(-c3ccccc3)cc2-c2ccnc(NCCCO)c2)c1")
0
>>> cat("C=C(C)[C@@H]1CC[C@]2(C(=O)N3CCN(CC)CC3)CC[C@]3(C)[C@H](CC[C@@H]4[C@@](C)(CCC(=O)N5CCN(CC)CC5)[C@H](C(=C)C)CC[C@]43C)[C@@H]12")
0
>>> cat("Cn1cccc1/C=C1/SC(=S)N(CCc2ccc(O)cc2)C1=O")
0
>>> cat("N#C/C(=C\\c1ccc(-c2ccc(Br)cc2)o1)c1nc(-c2cccs2)cs1")
1
>>> cat("O=C(O)c1cccc2c1C(=O)N(c1ccc3c(c1)Cc1ccccc1-3)C2=O")
1
>>> cat("O=S(=O)(NCCNc1cc(-c2cn(-c3ccccc3)nc2-c2cccc(O)c2)ccn1)c1ccc(Cl)cc1")
0
>>> cat("CC(C)=CCC/C(C)=C/CC/C(C)=C/CC/C(C)=C/CSC[C@H](NC(=O)CCCCCN1CCN(C)CC1)C(=O)NC1CCCCC1")
0
>>> cat("O=C(/C=C/c1cccc2ccccc12)Nc1ncc(Cc2ccccc2)s1")
0
>>> cat("O=[N+]([O-])c1ccc(N/N=C(\\C(=N/Nc2ccc([N+](=O)[O-])cc2[N+](=O)[O-])c2ccccc2)c2ccccc2)c([N+](=O)[O-])c1")
1
>>> cat("Cc1cc(N(CCCNc2ccnc3cc(Cl)ccc23)Cc2ccco2)nc(N2CCN(C)CC2)n1")
0
>>> cat("Cn1cc(-c2csc(-c3c[nH]c4ccc(F)cc34)n2)c2cccnc21")
0
>>> cat("O=c1c(CNc2ccc(S(=O)(=O)Nc3ncccn3)cc2)coc2ccccc12")
1
>>> cat("COC(=O)[C@]12CC[C@@H](C)[C@H](C)[C@@H]1C1=CC(=O)[C@@H]3[C@@]4(C)C[C@@H](OC(C)=O)[C@H](OC(C)=O)[C@@](C)(COC(C)=O)[C@@H]4C(=O)C[C@@]3(C)[C@]1(C)CC2")
0
>>> cat("CC(C)(C)c1cc(-n2c(-c3ccc(Cl)cc3)nc3cc(C(=O)Nc4ccc(Cl)cc4)ccc32)n[nH]1")
1
>>> cat("C#CCn1c(C)cc(C)c(C#N)c1=O")
1
>>> cat("COc1cc(C(=O)/C=C/c2cc(-c3ccc4c(c3)OCO4)n[nH]2)cc(OC)c1OC")
0
